Entries and their measured Therapeutic index follow.
# ASSAY_PROTOCOL: Ratio of ED50 (hexobarbital) to that of ED50 (fighting)
# Type: functional
READOUT_KIND: Therapeutic index

COMPOUND | MEAS_VALUE
COc1ccccc1N1CCN(CC(O)COc2cc(OC)c(OC)c(OC)c2)CC1 (centres undefined) | 33
COc1cc(OCC(O)CN2CCN(c3ccccc3O)CC2)cc(OC)c1OC (centres undefined) | 154
COc1cc(OCC(O)CN2CCN(c3ccccc3N)CC2)cc(OC)c1OC.Cl (centres undefined) | 103
CN1C(=O)CN=C(c2ccccc2)c2cc(Cl)ccc21 [DIAZEPAM] | 2.1
COc1cc(OCC(O)CN2CCN(c3ccccc3NC(C)=O)CC2)cc(OC)c1OC (centres undefined) | 61
O=C1CN=C(c2ccccc2)c2cc(Cl)ccc2N1CC1CC1 [PRAZEPAM] | 1.4
O=C1CC2(CCCC2)CC(=O)N1CCCCN1CCN(c2ncccn2)CC1 [BUSPIRONE] | 0.7
COc1cc(OCC(O)CN2CCN(c3cccc(C(F)(F)F)c3)CC2)cc(OC)c1OC.Cl (centres undefined) | 10
CN1C(=O)CC(=O)N(c2ccccc2)c2cc(Cl)ccc21 [CLOBAZAM] | 5.6
